- experimental-system: T1, PUF4 RNA-binding domain (Saccharomyces cerevisiae, UniProt P25339 537-888)
- T1 sequence: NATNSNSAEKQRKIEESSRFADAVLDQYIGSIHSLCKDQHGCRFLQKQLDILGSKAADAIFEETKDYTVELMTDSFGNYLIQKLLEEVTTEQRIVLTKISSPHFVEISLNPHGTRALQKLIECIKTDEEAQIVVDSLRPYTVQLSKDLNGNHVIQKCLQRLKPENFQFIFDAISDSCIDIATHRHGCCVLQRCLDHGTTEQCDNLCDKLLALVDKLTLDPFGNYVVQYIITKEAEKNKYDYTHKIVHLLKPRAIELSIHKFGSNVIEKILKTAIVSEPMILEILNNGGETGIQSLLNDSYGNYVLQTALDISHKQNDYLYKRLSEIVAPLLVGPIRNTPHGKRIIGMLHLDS
- measurement-description: Mg; RNA-MaP; 20 mM Na-HEPES pH 7.4, 30 mM KOAc, 0.75 mM MgCl2, 0.1% Tween-20, 5% glycerol, 0.1 mg/mL BSA, 2 mM DTT; 25 C; 0.0125-409.6 nM protein
- cond: tags: N-His6-TEV cleaved; C-SNAP kept, Cy3B-labelled; label: tethered on chip by stalled RNA polymerase
Below, each of the binders is paired with its reported Kd value.
Just the number please, in nM, no unit attached.

Recorded Kd, per entry:
| binder | Kd (nM) |
| --- | --- |
| UCUCUUUGUAACGCCUCUCUU (ssRNA) [Ic_S1_P4E.1_K4.1_C4.1_H4.1_A4.1_[T5A]_[A6C]_[T7G]_F4.1_[T8C]_[A9C]_T4.1] | 2000 |
| Id_ii_S4_P3E.2_K3.1_C3.2_[C-2T]_[T-1A]_H3.1_A3.1_F3.1_T3.2_[T9A] (ssRNA) RNA: UUUGACAACUGAUCGUUCUUUCUUAUGUAUAUAAAUUCUUUCUCGAUCAGUUGUCUUU | 20.1 |
| Ie_S4_P4E.1_K4.1_C4.1_H4.1_A4.1_[+7TTC]_F4.1_T4.1 (ssRNA) RNA: UUUGACAACUGAUCGUUCUUUCUUGUAUAUUUCUAUUCUUUCUCGAUCAGUUGUCUUU | 4.42 |
| Ie_S2_P4E.1_K4.1_C4.1_H4.1_A4.1_F4.1_[+9TCTC]_T4.1 (ssRNA) RNA: UUUGAUUAAUAUGAUAUCGUUCUUUCUUGUAUAUUAUCUCUUCUUUCUCGAUAUCAUAUUAAUCUUU | 0.324 |

Exam item: Field request: Kd | item: Id_ii_S2_P3E.4_K3.3_C3.2_[C-2A]_[T-1C]_H3.3_A3.1_F3.1_T3.2_[T9A] (ssRNA) RNA: UUUGAUUAAUAUGAUAUCGUUCUUUCUACACACUAUAAAUUCUUUCUCGAUAUCAUAUUAAUCUUU
Marked response: 1070

Exam item: Here is the next binder: UCUCUUUGUAUCCAGUCUCUU (ssRNA) [Ic_S1_P4E.1_K4.1_C4.1_H4.1_A4.1_[A6C]_[T7C]_F4.1_[T8A]_[A9G]_T4.1]
Marked response: 2020
